Reference source for all entries: ChEMBL document CHEMBL1128956

- target: Chymotrypsin-like elastase family member 2A (Sus scrofa) (UniProt P08419)
- Sequence (whole entry): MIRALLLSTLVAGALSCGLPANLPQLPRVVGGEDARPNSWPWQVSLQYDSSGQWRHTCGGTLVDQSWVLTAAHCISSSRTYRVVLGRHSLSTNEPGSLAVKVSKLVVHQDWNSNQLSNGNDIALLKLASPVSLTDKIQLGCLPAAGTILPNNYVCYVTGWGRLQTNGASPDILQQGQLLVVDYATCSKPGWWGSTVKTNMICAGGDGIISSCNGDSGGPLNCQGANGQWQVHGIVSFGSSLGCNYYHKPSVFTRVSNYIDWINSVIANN
- protocolNotes: Compound was tested for inhibitory activity toward porcine pancreatic elastase.
Each entry below lists one item and its recorded Concentration value.
observable: Concentration (µM)

[
  {
    "compoundString": "O=C(CNC(=O)OCc1ccccc1)NCC(=O)N[C@H](/C=C/CBr)Cc1ccccc1",
    "valueReported": 15
  },
  {
    "compoundString": "O=C(CNC(=O)OCc1ccccc1)N[C@H](/C=C/CBr)Cc1ccccc1",
    "valueReported": 25
  },
  {
    "compoundString": "O=C(CNC(=O)OCc1ccccc1)N[C@H](/C=C/CCl)Cc1ccccc1",
    "valueReported": 600
  },
  {
    "compoundString": "CC(=O)N[C@H](/C=C/CBr)Cc1ccccc1",
    "valueReported": 101
  },
  {
    "compoundString": "O=C(CNC(=O)OCc1ccccc1)NCC(=O)N[C@H](/C=C/CCl)Cc1ccccc1",
    "valueReported": 97
  }
]
